- test-protocol: CytoTox 96 Non-Radioactive Cytotoxicity Assay
- Format: cell-based, Human
- measurement-context: human; HCT-8 cells, 10 µM
readout-name: viability at 10 µM (%)
Answers are plain numbers, in %.

Please state, for each entry, its recorded viability at 10 µM.
1. CC(C)(NC(=O)Nc1ccc(Cl)c([N+](=O)[O-])c1)c1cccc(-c2cccc([N+](=O)[O-])c2)c1 [Compound 12]
2. CC(C)(Nc1c(Nc2ccc(Cl)c([N+](=O)[O-])c2)c(=O)c1=O)c1cccc(-c2cc[nH]n2)c1 [Compound 30]
3. CC(C)(NC(=O)NCc1ccccc1)c1cccc(-c2ccco2)c1 [Compound 8]
4. CCOC(=O)n1ccc(-c2cccc(C(C)(C)NC(=O)Nc3ccc(Cl)c([N+](=O)[O-])c3)c2)n1 [Compound 13]

Result:
1. 58
2. 98.2
3. 95.9
4. 97.2

Please state, for each entry, its recorded viability at 10 µM.
1. CC(C)(NC(=O)Nc1ccc(Cl)c([N+](=O)[O-])c1)c1cccc(-c2cn[nH]c2)c1 [Compound 16]
2. CC(C)(NC(=O)NCc1ccccc1)c1cccc(-c2cc[nH]n2)c1 [Compound 6]
3. CC(C)(NC(=O)Nc1ccc(Cl)c([N+](=O)[O-])c1)c1cccc(-c2cc[nH]n2)c1 [Compound 14]
4. CC(C)(NC(=O)Nc1ccc(Cl)c([N+](=O)[O-])c1)c1cccc(-c2ccco2)c1 [Compound 21]

Result:
1. 96.4
2. 97
3. 97.6
4. 98.3

Please state, for each entry, its recorded viability at 10 µM.
1. CCOC(=O)n1cc(-c2cccc(C(C)(C)NC(=O)Nc3ccc(Cl)c([N+](=O)[O-])c3)c2)cn1 [Compound 15]
2. CC(=O)c1cccc(C(C)(C)Nc2c(Nc3ccc(Cl)c([N+](=O)[O-])c3)c(=O)c2=O)c1 [Compound 29]

Result:
97.5
97.2

Please state, for each entry, its recorded viability at 10 µM.
1. CC(C)(NC(=O)Nc1ccc(Cl)c([N+](=O)[O-])c1)c1cccc(-c2cn(C(c3ccccc3)(c3ccccc3)c3ccccc3)cn2)c1 [Compound 18]
2. CC(C)(NC(=O)NCc1ccccc1)c1cccc(-c2cccs2)c1 [Compound 9]
3. CC(C)(NC(=O)Nc1ccc(Cl)c([N+](=O)[O-])c1)c1cccc(-c2cccnc2F)c1 [Compound 24]
4. CCOc1ncccc1-c1cccc(C(C)(C)NC(=O)Nc2ccc(Cl)c([N+](=O)[O-])c2)c1 [Compound 23]
5. CC(C)(NC(=O)NCc1ccccc1)c1cccc(-c2ccccc2)c1 [Compound 10]
6. CC(C)(NC(=O)Nc1ccc(Cl)c([N+](=O)[O-])c1)c1cccc(-c2nccn2Cc2ccccc2)c1 [Compound 17]

Result:
1: 97.3; 2: 95.4; 3: 96.8; 4: 94.1; 5: 97.4; 6: 97.3

Data credit: paper PMC12123366
